Target: recombinant human NF-kappaB-inducing kinase (NIK/MAP3K14) (Homo sapiens)
Sequence (Q99558 whole entry): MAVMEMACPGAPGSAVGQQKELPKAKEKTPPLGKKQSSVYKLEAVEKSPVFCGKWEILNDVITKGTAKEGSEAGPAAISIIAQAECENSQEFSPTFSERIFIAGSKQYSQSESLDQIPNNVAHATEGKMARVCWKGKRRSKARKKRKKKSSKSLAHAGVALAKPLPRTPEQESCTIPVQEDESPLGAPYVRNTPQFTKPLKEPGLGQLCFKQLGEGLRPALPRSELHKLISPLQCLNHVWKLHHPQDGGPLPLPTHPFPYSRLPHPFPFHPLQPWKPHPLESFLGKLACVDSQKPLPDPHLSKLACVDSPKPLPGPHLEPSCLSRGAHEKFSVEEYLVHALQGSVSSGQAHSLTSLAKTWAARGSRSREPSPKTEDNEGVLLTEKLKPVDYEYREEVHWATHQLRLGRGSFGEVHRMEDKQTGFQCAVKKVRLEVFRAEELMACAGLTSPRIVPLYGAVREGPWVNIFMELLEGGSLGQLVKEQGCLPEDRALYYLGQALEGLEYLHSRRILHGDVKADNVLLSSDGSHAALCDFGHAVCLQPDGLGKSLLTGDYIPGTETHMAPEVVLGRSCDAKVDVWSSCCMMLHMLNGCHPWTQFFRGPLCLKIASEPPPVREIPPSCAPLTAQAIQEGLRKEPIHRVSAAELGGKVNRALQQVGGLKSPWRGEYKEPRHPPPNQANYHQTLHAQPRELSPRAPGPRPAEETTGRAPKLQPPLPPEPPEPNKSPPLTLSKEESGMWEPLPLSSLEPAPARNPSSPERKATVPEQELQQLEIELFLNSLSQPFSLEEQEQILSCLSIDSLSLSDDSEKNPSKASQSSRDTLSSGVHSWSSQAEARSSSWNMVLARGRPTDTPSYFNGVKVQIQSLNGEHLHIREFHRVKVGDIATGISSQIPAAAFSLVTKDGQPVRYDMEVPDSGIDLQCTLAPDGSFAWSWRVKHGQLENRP
Assay: Biological Assay B: inhibition of auto-phosphorylation of recombinant human NIK/MAP3K14 (AlphaScreen), performed at 2 locations
Type: biochemical
Conditions: location 2; AlphaScreen auto-phosphorylation; averaged values; read-out: Assay B location 2 IC50
pIC50: −log10 of the molar value.
property.measured: pIC50

Recorded pIC50, per entry:
>>> recorded_measurement("COc1cc(N2CCN(C)CC2)c(C#N)cc1Nc1nccc(-c2cnc3c(c2)C(C)(CO)CN3)n1 (centres unmarked)")
8.60
>>> recorded_measurement("COc1cc(OC2CCN(C)CC2)c(F)cc1Nc1nccc(-c2cnc3c(c2)C(C)(CO)CN3)n1 (centres unmarked)")
8.55
>>> recorded_measurement("COc1cc(Cn2cccn2)ccc1Nc1nccc(-c2cnc3c(c2)C(C)(CO)CN3)n1 (centres unmarked)")
8.16
>>> recorded_measurement("COc1cc(Cl)ccc1Nc1nccc(-c2cnc3c(c2)C(C)(CO)CN3)n1 (centres unmarked)")
7.15
>>> recorded_measurement("COc1ccccc1Nc1nccc(-c2cnc3c(c2)C(C)(CO)CN3)n1 (centres unmarked)")
7.75

(P) COc1cccc(Nc2nccc(-c3cnc4c(c3)C(C)(CO)CN4)n2)c1Cl (centres unmarked)
(Q) COc1cc(-n2cnc(C)c2)ccc1Nc1nccc(-c2cnc3c(c2)C(C)(CO)CN3)n1 (centres unmarked)
Hi there! Just curious which has the higher pIC50 between P and Q . The response must carry the label of the picked entry.
P

The reported measurements were obtained from patent US11236084B2.
